Kindly supply the reported koff values for the records listed here.
target: T1, Human serum albumin (human, UniProt P02768 25-609); assay: SPR (Biacore), antibody captured on the chip, HSA as analyte, 25 C, 1:1 model
T1 construct: Bought purified protein, injected as the analyte in SPR; also called HSA; Human albumin, ChromPure (Jackson ImmunoResearch)
Answers are plain numbers, in s⁻¹.

1. 645CDR-497FW Fab-A26 ds HL BYbe (bispecific antibody, part only; not given: A26 dsscFv, linker, CH1, CL, V domains shown, not shown: another chain or arm of the molecule; a dimerising Fc or GST; small tags and cut ends) VH: EVQLVESGGGLVKPGGSLRLSCAASGIDLSNYAINWVRQAPGKGLEWVGIIWASGTTFYATWAKGRFTISRDDSKNTLYLQMNSLKTEDTAVYYCTTTVPGYSTAPYFDLWGQGTLVTVSS VL: AIQLTQSPSSLSASVGDRVTITCQSSPSVWSNFLSWYQQKPGKAPKLLIYEASKLTSGVPSRFSGSGSGTDFTLTISSLQPEDFATYYCGGGYSSISDTTFGQGTKVEIK    0.000186

Kindly consider the entry below.
Query string: # input binder: 645gL4gH5 Fab-A26 BYbe wt (bispecific antibody, part only; not given: A26 dsscFv, linker, CH1, CL, V domains shown, not shown: another chain or arm of the molecule; a dimerising Fc or GST; small tags and cut ends) VH: EVQLLESGGGLVQPGGSLRLSCAVSGIDLSNYAINWVRQAPGKQLEWIGIIWASGTTFYATWAKGRFTISRDNSKNTVYLQMNSLRAEDTAVYYCARTVPGYSTAPYFDLWGQGTLVTVSS VL: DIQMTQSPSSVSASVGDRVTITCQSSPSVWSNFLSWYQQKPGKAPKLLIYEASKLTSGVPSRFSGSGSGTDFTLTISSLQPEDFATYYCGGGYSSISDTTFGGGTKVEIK ; wanted: its koff
Result string: 0.00025
